Give measured Classification for each item. Keep answers brief.
Tested system: T1, GST-PTPL1 PDZ domain 4 (Homo sapiens (Human)), Q12923
T1 chain: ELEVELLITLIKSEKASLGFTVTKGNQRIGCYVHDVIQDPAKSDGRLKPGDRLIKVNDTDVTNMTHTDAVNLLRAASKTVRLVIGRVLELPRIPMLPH
Method notes: G' assay; further: key of the grades not given here
Answers are plain numbers, in A450 class.

Please review the following examples before continuing.
Classification for DTLLLTENEGDKTEEQVSYV (modifications not checked) [serotonin receptor 5HT-2B] is 2

Classification for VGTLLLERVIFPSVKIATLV (modifications not checked) [AdenoE4 typ9] is 4

Provide the reported Classification of each entry below, same order.
1. YSQPSARSEGEFKQTSSFLV (modifications not checked) [JAM (junctional adhesion molecule)]
2. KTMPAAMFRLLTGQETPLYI (modifications not checked) [MINT-2]
3. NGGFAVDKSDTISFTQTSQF (modifications not checked) [glutamate transporter 3]
4. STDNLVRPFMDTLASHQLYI (modifications not checked) [presenilin-2]
5. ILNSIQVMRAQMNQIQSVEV (modifications not checked) [ephrin B2]
6. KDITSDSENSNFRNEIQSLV (modifications not checked) [CD95]

Result block:
1: 1; 2: 4; 3: 1; 4: 2; 5: 2; 6: 1

Classification for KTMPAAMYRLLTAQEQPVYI (modifications not checked) [MINT-1] is 5
